Cited source for all entries: patent US20210220408A1

Target: UniProt:P35869
Sequence (P35869 11-848): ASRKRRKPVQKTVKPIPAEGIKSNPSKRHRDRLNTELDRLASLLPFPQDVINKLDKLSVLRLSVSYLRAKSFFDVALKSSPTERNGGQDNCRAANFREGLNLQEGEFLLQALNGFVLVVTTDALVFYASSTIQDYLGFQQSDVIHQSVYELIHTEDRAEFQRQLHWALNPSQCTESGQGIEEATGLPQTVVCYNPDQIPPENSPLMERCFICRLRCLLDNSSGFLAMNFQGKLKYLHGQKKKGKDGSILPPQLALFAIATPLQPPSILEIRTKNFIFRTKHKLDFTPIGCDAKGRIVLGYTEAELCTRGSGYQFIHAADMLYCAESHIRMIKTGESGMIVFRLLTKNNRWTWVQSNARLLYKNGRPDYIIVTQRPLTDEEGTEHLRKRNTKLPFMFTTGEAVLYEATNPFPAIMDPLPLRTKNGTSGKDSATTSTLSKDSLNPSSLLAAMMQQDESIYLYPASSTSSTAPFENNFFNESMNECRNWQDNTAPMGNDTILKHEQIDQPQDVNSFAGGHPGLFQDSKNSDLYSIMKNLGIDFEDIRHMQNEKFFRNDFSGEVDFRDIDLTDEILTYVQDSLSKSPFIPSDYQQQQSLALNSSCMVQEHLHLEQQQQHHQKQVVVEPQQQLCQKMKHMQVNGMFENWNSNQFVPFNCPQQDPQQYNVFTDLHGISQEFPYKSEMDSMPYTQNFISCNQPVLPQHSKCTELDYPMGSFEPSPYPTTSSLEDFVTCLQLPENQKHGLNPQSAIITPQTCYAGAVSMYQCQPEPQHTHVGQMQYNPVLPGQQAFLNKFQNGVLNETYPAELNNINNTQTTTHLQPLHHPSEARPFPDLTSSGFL
Experiment: DRE-Luciferase reporter high-throughput screen (AHR antagonist, VAF347-activated)
reported metric: IC50

Specify IC50 for CCCCc1ccc(C(=O)Nc2ccccc2O)cc1 and stop.
> 2 µM

Specify IC50 for CCOC(=O)c1ccc(Nc2nc(=O)c3cccnc3s2)cc1 [196A] and stop.
> 2 µM

Specify IC50 for Clc1ccc2nnn(OCc3cn4cc(Cl)ccc4n3)c2c1 [116A] and stop.
> 2 µM
